Test: yeast display, Sf9 membrane polyspecificity reagent, FACS + sequencing; frameworks hold sequencing errors

>  <entry-sequence>
QVQLVESGGGLVQAGGSLRLSCAASGGTFPVYALGWYRQAPGKERELVAAISYSGVTTYYADSVKGRFTISRDNAKNTVYLQMNSLKPEDTAVYYCNADWRRWYIFSYDYWGQGTQVTVSS

>  <polyreactivity (PSR sort gate)>
low polyreactivity

$$$$
>  <entry-sequence>
QVQLVESGGGLVQAGGSLRLSCAASGRIFYYNAMGWYRQAPGKERELVAAINYRGGSTYYADSVKGRFTISRDNAKNTVYLQMNSLKPEDTAVYYCAARYWEDGSTYDYWGQGTQVTVSS

>  <polyreactivity (PSR sort gate)>
high polyreactivity

$$$$
>  <entry-sequence>
QVQLVESGGGIVQAGGSLRLSCAASGRTFGYYAMRWYRQAPGKERELVAAIYWSGGSTRYADSVKGRFTISRDNAKNTVYLQMNSLNPDDTAVYYCAADSWYSFAGVYRVYGEDYWGQGTEVTVSS

>  <polyreactivity (PSR sort gate)>
low polyreactivity

$$$$
>  <entry-sequence>
QVQLVESGGGLVQAGGSLRLSCAASGRIFGIYAMGWYRQAPGKERELVATITDSDDSTYYADSVKGRFTISRDNAKNTVYLQMNSLKPEDTAVYYCATAFSYGGGAYDYWGQGTQVTVSS

>  <polyreactivity (PSR sort gate)>
low polyreactivity

$$$$
>  <entry-sequence>
QVQLVESGGGLVQAGGSLRLSCAATGSTFDDNVMGWYRQAHGKVRELVAAITTSGGSTFYADSVKWRFTISRDNAKNTVYLQMNSLKPEDTAVYYCNAVYFGLWGYYARRSYNYWGQGTQVTVSS

>  <polyreactivity (PSR sort gate)>
low polyreactivity

$$$$
>  <entry-sequence>
QVQLVETGGGLVQAGGSLRLSCAHSGSIFASNAMGWYRHAPGKEREFVAAIRYSGGITYYADSVKGRFTISRDNAKNTVYLQMTSLKPEDTAVYYCAAYGWGNRWYSRFDYWGQGTQVTVSS

>  <polyreactivity (PSR sort gate)>
high polyreactivity

$$$$
>  <entry-sequence>
QVQLEESGGGLDQAGGSLRLSCAASGSTFYKNAMGWYRQAPGKERELVARISGRGGSTDYADSVKGRFTISRDNAKNTVYLQMNSLKPDDTAVYYCNAGKYSSSDALYDYWGQGTQVTVSS

>  <polyreactivity (PSR sort gate)>
high polyreactivity

$$$$
>  <entry-sequence>
QLQLVESGGGLVQAGGSLRLSCAASGFTFYAYAMGWYRQAPGKERELVAAINSGGGSRTYYADSVKGRFTISRDNAKNTVYLQMNCLKPEDTAVYYCAARVYGVDGYGYWGQGTEVTVSS

>  <polyreactivity (PSR sort gate)>
high polyreactivity

$$$$
>  <entry-sequence>
QDQLVDSGGGLVQAGGSLRLSCASSGGTFSYYTMGWYRQAPGKERELVARISKNGGRTYYADSVKGRFTISRDNAKNTVYLQLNSLKPEDTAVYYCNAAGRTYDFSGGRTMEYWGQGTQVTVSS

>  <polyreactivity (PSR sort gate)>
high polyreactivity

$$$$
>  <entry-sequence>
QVQLVESGGGLVQAGGSLRLSCAASGSTIIDYDMGWYRQAPGKERELVAGISWSGGRTYYADSVKGRFTISRDNAKNTVYLQMNSLKPEDTEVYYCNKVGRGARTSDYWGQGTQVTVSS

>  <polyreactivity (PSR sort gate)>
high polyreactivity

$$$$
>  <entry-sequence>
QVQLVESGGGLVQAGGSLRLSCAASGSTLRGNARGCYRQAPGKEREFVAAISSSGGRTYYADSVKGRFTISRDNAKNTVYLQMTSLNPEDTAVYYCAAAGYQYYFSSVPRAYYYWGQGTLVTVSS

>  <polyreactivity (PSR sort gate)>
high polyreactivity

$$$$

====

Assay: yeast display, Sf9 membrane polyspecificity reagent, FACS + sequencing; frameworks hold sequencing errors

>  <entry-sequence>
QDQLVESGGGLVQAGGSLRLSCAASGIIFKYYAMGWYRQAPGKERELVAAITSGGSTNYADSVKGRFTISRDNAKNTVYLQMNSLKPEDTAVYYCAKRFYYRNRFDYWGHGTQVTVSS

>  <polyreactivity (PSR sort gate)>
low polyreactivity

$$$$
>  <entry-sequence>
QVQLVESGGGIVQAGGSLRLSCAASGYIFQYYAMGWYRQAPGKERELVAAITGGGSTKYADSVKGRFTISRDNAKNTVYLQMNSLKPEDTAVYYCAASLWYRISKYDYWGQGTQVTVSS

>  <polyreactivity (PSR sort gate)>
high polyreactivity

$$$$
>  <entry-sequence>
QVQLVESGGGLVQAGGSLRLSCAASGSIFSYNGMGWYRQAPGKERELVATISASSVTTYYADSVKGRFTFSRDNAMNTVYLQMNSLKPEDTAVYYCARDAYSVYYYVFLHWEYDYWGQGTQVTVSS

>  <polyreactivity (PSR sort gate)>
high polyreactivity

$$$$
>  <entry-sequence>
QVQLVESGGGLVQAGGSLRLSCASSGITFAKNAMGRYRQAPGKERELVAVITNTNYADSVKGRFTISRDNAKNTVYLQMNSLKPEDTAVYYCAVDGYGWYFARSWLRYYYWGQGTQVTVSS

>  <polyreactivity (PSR sort gate)>
low polyreactivity

$$$$
>  <entry-sequence>
QVQLVESGGGLVQAGGSLRLSCAASGSILDWNAMGWYRQAPGKVRELDAAITNGVSTHYADSVKGRFTISRDNAKNTVYFQMNSLKPEETAVYYCAKAFWWRPEWWLRSARGSWGQGTQVTVSS

>  <polyreactivity (PSR sort gate)>
low polyreactivity

$$$$

====

Assay: yeast display, Sf9 membrane polyspecificity reagent, FACS + sequencing; frameworks hold sequencing errors

>  <entry-sequence>
QVQLVESGGGLVQAGGSVRLSCAASGRIFRHNTRGWYRQAPGKERELVAAITFSDGNTYYADSVKGRFTISRDNAKNTVYLQMNSLKPEDTAVYYCNAGYSYGVSYAEGGYWGQGTQVTVSS

>  <polyreactivity (PSR sort gate)>
low polyreactivity

$$$$
>  <entry-sequence>
QVQLVESGGGLVQAGGSLRLSCAASVRIFWYNAMGWYRQAPGKERELVATISSSGSTNYADSVKGRFTISRDNAKNTVYLQMNSLKPEDTAVYYGAPGKTGFRYGGGDSTQEYWGQGTQVTVSS

>  <polyreactivity (PSR sort gate)>
low polyreactivity

$$$$
>  <entry-sequence>
QVQLVESGGGLVQAGGSLRLSCAASGFTFSRNTMGWYSQAPGKERELVARISASGGSTYYADSVKGRITISRDNAKNTVYLQMNSLKPEATAVYYCAAVYRRYGGSRYDYWGQGTQVTVSS

>  <polyreactivity (PSR sort gate)>
high polyreactivity

$$$$
>  <entry-sequence>
QVQLVESGGGLVQAGGSLRLSCAASGRIFGRYAMGWYRQAPGKERELVAAISSGGNTYYADSVKGRFTISRDNAKNTVYLQMISLKPEDTAVYYCNALYYRPPGYDYWGQGTQLTVSS

>  <polyreactivity (PSR sort gate)>
high polyreactivity

$$$$
>  <entry-sequence>
QVQLVESGGGLVQAGGSLRLSCAASGSIFFIYAIGWYRQAPGKQRELVATISSGGSTYYADSVKGRFRISRDIAKNTVYLQMNSLKPEDTAVYYCAADGIVQDGLEWEYDYWGQGTQVTVSS

>  <polyreactivity (PSR sort gate)>
low polyreactivity

$$$$

====

Assay: yeast display, Sf9 membrane polyspecificity reagent, FACS + sequencing; frameworks hold sequencing errors

>  <entry-sequence>
QVQLVESGGGLVQAGGSLRLSCAASGGTLYYNAMGWYRQAPGKERELVAAISGRGGRTYYADSVKGRFTISRDNAKNTVYLQMNSLKPEDTAVYYFARVTNDHYDYWGQGTQVTVSS

>  <polyreactivity (PSR sort gate)>
high polyreactivity

$$$$
>  <entry-sequence>
QVQLVESGGGLVQAGGSLRLSCAASGFIFYYYAMGWYRQAPGKERELVAAISSGGSTYYADSVKGRFTISRDNAKNTVYLQMNSLKPEDTAVYYCNARGFYRGYTYYYWGQGTQVTVSS

>  <polyreactivity (PSR sort gate)>
high polyreactivity

$$$$
>  <entry-sequence>
QVQLVESGGGLVQAGGSLRLSCAASGRTIRWYAMGWYRPARGKERELVAVISRGGGSTTYADSVKGRFTISRDNAKNTVYLQMNSLKPEDTAVYYCAAYWGRTGYYGYDYYYWGQGTQVTVSS

>  <polyreactivity (PSR sort gate)>
high polyreactivity

$$$$
>  <entry-sequence>
QDQLVESGGGLVQAGGSLRLSCAASGRTFRWNAMGWYRQAPGKERELVAAITKSGGSTYYADSVKGRFTISRDNAKNTVYLQMNSLKPEDTAVYYCAAPRYSTFTYDYWGQGTQVTVSS

>  <polyreactivity (PSR sort gate)>
low polyreactivity

$$$$
>  <entry-sequence>
QVQLVESGGGLVQAGGSLRLSCAASGRIFVNNAMGWYRQAPGKEREFVAGISFSGDGRTYYADSVKGRFTISRDNAKNTVYLQMNSLKPEDTAVYYCAAPHRSRTHELDYWGQGTQVTVSS

>  <polyreactivity (PSR sort gate)>
low polyreactivity

$$$$
